Values compiled from the supplement of paper PMC10724198.

# System: Saccharomyces cerevisiae;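 also: PSI is a weighted mean of sequencing reads over stability bins, variants kept only with over 10 reads, mCherry proximal and sfGFP distal, peptide attached via GGGS linker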
# assay-summary: protein stability index of tFT-peptide fusion (C-terminal peptide) (PSI (0-1 scale)); higher = more stable (slower turnover)
# run-conditions: genetic background: wild type; temperature: 30 C
If the reported protein stability index equals or exceeds 0.2, assign t. If not, assign f.

[[record]]
macromolecule_sequence = "HVLALIFLYIPD"
class_assignment = "t"

[[record]]
macromolecule_sequence = "SVVRCWVLLGVA"
class_assignment = "f"

[[record]]
macromolecule_sequence = "CFFLSFNVFRLF"
class_assignment = "f"

[[record]]
macromolecule_sequence = "YLCFVVSCGVLR"
class_assignment = "t"

[[record]]
macromolecule_sequence = "ESFIKFALYIVN"
class_assignment = "t"

[[record]]
macromolecule_sequence = "HPRPRPPPLPPP"
class_assignment = "t"

[[record]]
macromolecule_sequence = "SELLVHVVFWLA"
class_assignment = "f"

[[record]]
macromolecule_sequence = "YLFLPGGEVSVH"
class_assignment = "t"

[[record]]
macromolecule_sequence = "RGFVVFCIPCFV"
class_assignment = "t"

[[record]]
macromolecule_sequence = "VCLVAGVFFCLL"
class_assignment = "t"

[[record]]
macromolecule_sequence = "IFFYQLYVDRLC"
class_assignment = "f"

[[record]]
macromolecule_sequence = "FSLLTWPFVFLV"
class_assignment = "f"

[[record]]
macromolecule_sequence = "EKKNQTAYNKTV"
class_assignment = "f"

[[record]]
macromolecule_sequence = "LLMCCLPFLWVF"
class_assignment = "t"

[[record]]
macromolecule_sequence = "RVVNRWGVCFLG"
class_assignment = "f"

[[record]]
macromolecule_sequence = "CVFAYSPVALRC"
class_assignment = "t"

[[record]]
macromolecule_sequence = "CHFLLHYVFLLS"
class_assignment = "t"

[[record]]
macromolecule_sequence = "VCDPWVFIRCLV"
class_assignment = "f"

[[record]]
macromolecule_sequence = "VDVWRWRGLRVG"
class_assignment = "t"

